System: human dopaminergic neurons (LUHMES cells)
Test: Cytotoxicity to mature (d6) LUHMES neurons, calcein-AM & H-33342 high content imaging
Format: cell-based
Details: mature LUHMES d6, 24 h exposure; read-out: EC50 (half-maximal cytotoxic potency), cell viability
metric_name: EC50 (µM)
Answer in µM, number only, no unit symbol.

// lookup EC50 | system=human dopaminergic neurons (LUHMES cells) | key= OCC1CSC(c2ccccc2O)=N1 (stereo not shown)
3.1

----------
Assay: Cytotoxicity to immature (d2) LUHMES cells, calcein-AM & H-33342 imaging
Type: cell-based
Conditions: human, immature LUHMES d2, 24 h exposure, read-out: EC50 (half-maximal cytotoxic potency), cell viability
metric_name: EC50 at 24 h (µM)
Answer in µM, number only, no unit symbol.

Which measured EC50 at 24 h value corresponds to OCC1CSC(c2ccccc2O)=N1 (stereo not shown) ?
9.3
